Assay: Cytotoxicity against mouse MS1 cells
Type: cell-based
Settings: read-out: LC50 (the source's name)
measurement label: CC50

CC50 reading for CC[C@H](CC[C@@H](C)[C@H]1CC[C@H]2C3=C(CC[C@]12C)[C@@]1(C)CC[C@H](O)C[C@@]12O[C@H]2[C@H]3O)C(C)C (relative stereo) : 0.5 µg/mL

CC50 reading for CC[C@H](CC[C@@H](C)[C@H]1CCC2=C3[C@H](O)[C@@H]4O[C@@]45C[C@@H](O)CC[C@]5(C)[C@H]3CC[C@@]21C)C(C)C : 0.5 µg/mL
